Test: Cytotoxicity in PHH natural infection assay (Cell Counting Kit-8)
Type: cell-based
Settings: HBV-infected primary human hepatocytes, CCK8
experimental endpoint: CC50 at 144 h

# compound, measured result
records = [
    ("O=C(CC1CCOC1)NC1CCC2(CC1)CCN(c1nc3cc(Cl)ccc3o1)CC2 (centres unmarked)", "58.6 µM"),
    ("O=C(NC1CC2(CCN(c3nc4cc(Cl)ccc4o3)C2)C1)C1CCS(=O)(=O)C1 (centres unmarked)", "94.1 µM"),
    ("O=C(NC1CCC2(CC1)CCN(c1nc3cc(Cl)ccc3o1)CC2)[C@H]1CCS(=O)(=O)C1", "83.9 µM"),
    ("O=C(NCC1CCN(c2nc3cc(Cl)ccc3o2)CC1)c1ccnc(S(=O)(=O)C2CC2)c1", "> 10 µM"),
    ("CS(=O)(=O)c1ccc(C(=O)NC2CC3(C2)CN(c2nc4cc(Cl)ccc4o2)C3)o1", "> 100 µM"),
]

Prompt: Entry `O=C(NC1CCC2(CC1)CCN(c1nc3cc(Cl)ccc3o1)CC2)C1COC1` has what CC50 at 144 h?
Response: 70.9 µM

Prompt: May I ask what CC50 at 144 h has been recorded for O=C(NC1CC2(CCN(c3nc4cc(Cl)ccc4o3)C2)C1)c1ccc(C(F)(F)F)o1 (centres unmarked) ?
Response: 81.4 µM

Prompt: What value of measured CC50 at 144 h is listed for `COCCOc1cc(C(=O)NC2CC3(C2)CN(c2nc4cc(Cl)ccc4o2)C3)ccn1` ?
Response: > 100 µM

Prompt: Fill in: CC50 at 144 h of `O=C(NCC1CCN(c2nc3cc(Cl)ccc3o2)CC1)C1CS(=O)(=O)C1` is ___
Response: > 100 µM

Prompt: Please report the recorded CC50 at 144 h for `O=C(NC1CC2(C1)CN(c1nc3cc(Cl)ccc3o1)C2)c1ccc(C(F)(F)F)o1` .
Response: > 100 µM

Prompt: Please give the measured CC50 at 144 h for this compound: `O=C(NC1CCC2(CC1)CCN(c1nc3cc(Cl)ccc3o1)CC2)C1CCS(=O)(=O)CC1`
Response: 93.6 µM

Prompt: Using the record for CS(=N)(=O)c1ccc(C(=O)NC2CCC3(CC2)CCN(c2nc4cc(Cl)ccc4o2)CC3)o1 (centres unmarked) , report its CC50 at 144 h.
Response: > 100 µM

Prompt: Can you share its CC50 at 144 h? I mean this compound: `O=C(NC1CCC2(CC1)CCN(c1nc3ccccc3o1)CC2)c1ccnc(S(=O)(=O)C2CC2)c1`
Response: > 10 µM

Prompt: Recorded CC50 at 144 h for `COc1ccc(C(=O)NC2CC3(C2)CN(c2nc4cc(Cl)ccc4o2)C3)cn1` , please?
Response: > 100 µM

Prompt: What value of measured CC50 at 144 h is listed for `CC(C)CC(=O)NC1CC2(C1)CN(c1nc3cc(Cl)ccc3o1)C2` ?
Response: 76.6 µM

Prompt: Look at this compound and give its reported CC50 at 144 h. CC[S+]([O-])c1ccc(C(=O)NC2CCC3(CC2)CCN(c2nc4cc(Cl)ccc4o2)CC3)o1 (centres unmarked)
Response: 72.7 µM

Prompt: Could you tell me which CC50 at 144 h is on file for `O=C(NCC1CCN(c2nc3cc(Cl)ccc3o2)CC1)c1ccc(C(F)(F)F)nc1` ?
Response: > 10 µM

Data origin: patent US20230416238A1
